Value source: patent US20240376221A1

- system.under.test: recombinant human OX40 (Acro Biosystems, cat. no. OXO-H5224) (human) (UniProt P43489)
- Sequence (P43489 29-216 limits assumed): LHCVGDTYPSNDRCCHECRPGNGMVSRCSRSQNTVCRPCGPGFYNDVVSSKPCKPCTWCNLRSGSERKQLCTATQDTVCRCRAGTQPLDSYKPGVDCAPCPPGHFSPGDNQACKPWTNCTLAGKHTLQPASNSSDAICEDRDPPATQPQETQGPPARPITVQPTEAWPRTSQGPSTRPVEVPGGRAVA
- test.summary: BLI, Ab on AHC sensor, OX40 analyte
Provide the recorded Kd for the entries that follow.
Give the value, in units of nM, as a plain number.

[in] I have this binder here, IgG1-CD134-GBR830 (antibody, INN chains, looked up, V domains shown, IgG1) VH: QVTLKESGPALVKPTQTLTLTCSFSGFSLSTSGMGVGWIRQPPGKALEWIAHIWWDDDKYYNTALKTRLTISKDTSKNQVVLTMTNMDPVDTATYYCARIDWDGFAYWGQGTLVTVSS VL: EIVLTQSPATLSLSPGERATLSCRASSSVSYMHWYQQKPGQAPRPWIYATSNRATGIPARFSGSGSGTDYTLTISSLEPEDFAVYYCQQWSSNPWTFGQGTKVEIK , and I need its recorded Kd.
[out] 67

[in] Same question, IgG1-CD134-RG7888 (antibody, INN chains, looked up, V domains shown, IgG1) VH: EVQLVQSGAEVKKPGASVKVSCKASGYTFTDSYMSWVRQAPGQGLEWIGDMYPDNGDSSYNQKFRERVTITRDTSTSTAYLELSSLRSEDTAVYYCVLAPRWYFSVWGQGTLVTVSS VL: DIQMTQSPSSLSASVGDRVTITCRASQDISNYLNWYQQKPGKAPKLLIYYTSRLRSGVPSRFSGSGSGTDFTLTISSLQPEDFATYYCQQGHTLPPTFGQGTKVEIK this time
[out] 0.23

[in] Same question, IgG1-CD134-MEDI0562 (antibody, INN chains, looked up, V domains shown, IgG1) VH: QVQLQESGPGLVKPSQTLSLTCAVYGGSFSSGYWNWIRKHPGKGLEYIGYISYNGITYHNPSLKSRITINRDTSKNQYSLQLNSVTPEDTAVYYCARYKYDYDGGHAMDYWGQGTLVTVSS VL: DIQMTQSPSSLSASVGDRVTITCRASQDISNYLNWYQQKPGKAPKLLIYYTSKLHSGVPSRFSGSGSGTDYTLTISSLQPEDFATYYCQQGSALPWTFGQGTKVEIK this time
[out] 15

[in] Same question, IgG1-CD134-ABBV368 (antibody, INN chains, looked up, V domains shown, IgG1) VH: EVQLVESGGGLVQPGGSLRLSCAASGFTFSRYGMSWVRQAPGKGLELVATINSNGGRTYYPDSVKGRFTISRDNAKNSLYLQMNSLRAEDTAVYYCAREGITTAYAMDYWGQGTTVTVSS VL: DIVMTQSPDSLAVSLGERATINCKASQSVDYDGDSYMHWYQQKPGQPPKLLIYAASILESGVPDRFSGSGSGTDFTLTISSLQAEDVAVYYCQQSNEDPRTFGGGTKVEIK this time
[out] 32
